Read-out: Hypoxia-inducible factor 1-alpha (Homo sapiens)
Assay: LTEA_HepaRG_HIF1A: Life Technologies and Expression Analysis (LTEA) Assay for Hypoxia-inducible factor 1 (HIF1A) Trancription factor using HepaRG (AID 2283503);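 note: HIF1A transcript by TaqMan qRT-PCR normalized to ACTB GAPDH and POLR2A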
Details: mRNA level, 48 h; actives raise or lower the signal
Activity calls are given as the source filed them. Rule for the calls: active = hit-call score of the fitted dose curve at least 0.9, where 1 is the maximum; inactive = score below 0.9.
Outcomes: active, inactive

{"molecule": "CCCCCOC(=O)c1ccccc1C(=O)OCCCCC", "discrete_label": "inactive"}
{"molecule": "Nc1ccc(Cl)cc1N", "discrete_label": "active"}
{"molecule": "CCC12COCN1COC2", "discrete_label": "inactive"}
{"molecule": "Nc1ccc(Cc2ccc(N)cc2)cc1", "discrete_label": "inactive"}
{"molecule": "CCCCC(CC)COC(=O)c1ccc(C(=O)OCC(CC)CCCC)c(C(=O)OCC(CC)CCCC)c1 (configuration not stated)", "discrete_label": "inactive"}
{"molecule": "CCOC(=O)[C@]1(c2ccccc2)Oc2ccccc2[C@@H]1N", "discrete_label": "active"}
{"molecule": "O=C(Nc1ccccc1)c1ccccc1I", "discrete_label": "inactive"}
{"molecule": "C[N+](C)(C)CC1CO1 (configuration not stated)", "discrete_label": "inactive"}
{"molecule": "ClC1=C(Cl)[C@]2(Cl)[C@H]3[C@H]([C@@H]4C=C[C@H]3C4)[C@@]1(Cl)C2(Cl)Cl", "discrete_label": "inactive"}
{"molecule": "Nc1ccc(N=Nc2ccccc2)cc1", "discrete_label": "inactive"}
{"molecule": "Clc1ccc(C(c2ccc(Cl)cc2)C(Cl)Cl)cc1", "discrete_label": "inactive"}
{"molecule": "CC(C)COC(=O)c1ccccc1C(=O)OCC(C)C", "discrete_label": "inactive"}
